Data provenance: patent US8410150B2

Please provide measured pIC50 for the entries that follow.
MEASUREMENT TARGET: human CPT1A (Homo sapiens, UniProt P50416)
Construct: made in house; host or cells: Saccharomyces cerevisiae (pESC-trp) or cultured mammalian cells (pCDNA3.1); mitochondrial extract
TEST DETAILS: Human CPT1A LC/MS assay
Format: biochemical
EXPERIMENTAL CONDITIONS: human CPT1A LC/MS assay, dose response format
pIC50: −log10 of the molar value.

Quote pIC50 with test system human CPT1A (Homo sapiens, UniProt P50416) for "C[N+](C)(C)C[C@@H](CC(=O)[O-])NC(=O)c1ccc(COc2cccc3ccccc23)o1"
5.00 to 6.00

Quote pIC50 with test system human CPT1A (Homo sapiens, UniProt P50416) for "CCCCCCCCc1ccc(N(C)S(=O)(=O)N[C@H](CC(=O)O)C[N+](C)(C)C)cc1"
4.00 to 5.00

Quote pIC50 with test system human CPT1A (Homo sapiens, UniProt P50416) for "C[N+](C)(C)C[C@@H](CC(=O)[O-])NC(=O)c1ccc(CSCc2ccccc2)o1"
5.00 to 6.00

Quote pIC50 with test system human CPT1A (Homo sapiens, UniProt P50416) for C[N+](C)(C)C[C@@H](CC(=O)O)NC(=O)Nc1ccc(F)c(F)c1F [Example S14, acetate]
2.60 to 3.00

Quote pIC50 with test system human CPT1A (Homo sapiens, UniProt P50416) for "Cc1nc(-c2cnccn2)sc1C(=O)N[C@H](CC(=O)[O-])C[N+](C)(C)C"
< 2.60

Quote pIC50 with test system human CPT1A (Homo sapiens, UniProt P50416) for "CCCCCCC#Cc1cccc(N(C)S(=O)(=O)N[C@H](CC(=O)[O-])C[N+](C)(C)C)c1"
4.00 to 5.00

Quote pIC50 with test system human CPT1A (Homo sapiens, UniProt P50416) for "C[N+](C)(C)C[C@@H](CC(=O)[O-])NC(=O)C(F)(F)c1ccccc1"
3.00 to 4.00

Quote pIC50 with test system human CPT1A (Homo sapiens, UniProt P50416) for "C[N+](C)(C)C[C@@H](CC(=O)[O-])NC(=O)c1ccc(OCC(F)(F)F)nc1"
2.60 to 3.00

Quote pIC50 with test system human CPT1A (Homo sapiens, UniProt P50416) for C[N+](C)(C)C[C@@H](CC(=O)O)NC(=O)c1ccc(CS(=O)(=O)Cc2ccccc2)o1 [Example S61, 2,2,2-trifluoroacetate]
3.00 to 4.00

Quote pIC50 with test system human CPT1A (Homo sapiens, UniProt P50416) for "CCCCCCC#Cc1cccc(NS(=O)(=O)N[C@H](CC(=O)[O-])C[N+](C)(C)C)c1"
4.00 to 5.00

Quote pIC50 with test system human CPT1A (Homo sapiens, UniProt P50416) for "C[N+](C)(C)C[C@@H](CC(=O)O)NC(=O)c1ccc(CCc2ccccc2)o1"
≥ 6.00

Quote pIC50 with test system human CPT1A (Homo sapiens, UniProt P50416) for "C[N+](C)(C)C[C@@H](CC(=O)[O-])NC(=O)c1cccc(C#Cc2ccccc2)c1"
3.00 to 4.00

Quote pIC50 with test system human CPT1A (Homo sapiens, UniProt P50416) for CCOc1ccc(S(=O)(=O)N[C@H](CC(=O)O)C[N+](C)(C)C)cc1NC(=O)N1CCOCC1 [Example S74, 2,2,2-trifluoroacetate]
< 2.60

Quote pIC50 with test system human CPT1A (Homo sapiens, UniProt P50416) for "Cc1cccc(OCc2ccc(C(=O)N[C@H](CC(=O)[O-])C[N+](C)(C)C)o2)c1"
5.00 to 6.00

Quote pIC50 with test system human CPT1A (Homo sapiens, UniProt P50416) for "COc1ncc(C#Cc2ccc(C(=O)N[C@H](CC(=O)O)C[N+](C)(C)C)o2)cn1"
3.00 to 4.00

Quote pIC50 with test system human CPT1A (Homo sapiens, UniProt P50416) for CCCCCc1ccc(C#Cc2ccc(C(=O)N[C@H](CC(=O)O)C[N+](C)(C)C)s2)cc1 [Example S96, 2,2,2-trifluoroacetate]
≥ 6.00

Quote pIC50 with test system human CPT1A (Homo sapiens, UniProt P50416) for "CC(C)(C)c1ccc(OCc2ccc(C(=O)N[C@H](CC(=O)[O-])C[N+](C)(C)C)o2)cc1"
3.00 to 4.00

Quote pIC50 with test system human CPT1A (Homo sapiens, UniProt P50416) for CCCCCCCCOC(=O)Nc1ccc(S(=O)(=O)N[C@H](CC(=O)O)C[N+](C)(C)C)cc1 [Example S73, 2,2,2-trifluoroacetate]
4.00 to 5.00

Quote pIC50 with test system human CPT1A (Homo sapiens, UniProt P50416) for "C[N+](C)(C)C[C@@H](CC(=O)[O-])NC(=O)Nc1ccc(-c2cccs2)cc1"
3.00 to 4.00

Quote pIC50 with test system human CPT1A (Homo sapiens, UniProt P50416) for "CCCCCc1ccc(CCc2ccc(NS(=O)(=O)N[C@H](CC(=O)[O-])C[N+](C)(C)C)cc2)cc1"
≥ 6.00

Quote pIC50 with test system human CPT1A (Homo sapiens, UniProt P50416) for "C[N+](C)(C)C[C@@H](CC(=O)[O-])NC(=O)c1ccc(CN2CCOCC2)o1"
2.60 to 3.00

Quote pIC50 with test system human CPT1A (Homo sapiens, UniProt P50416) for "CCCCCCCC#Cc1ccc(NS(=O)(=O)N[C@H](CC(=O)[O-])C[N+](C)(C)C)cc1"
5.00 to 6.00

Quote pIC50 with test system human CPT1A (Homo sapiens, UniProt P50416) for "CCCCCCCCc1cccc(NS(=O)(=O)N[C@H](CC(=O)[O-])C[N+](C)(C)C)c1"
≥ 6.00

----------
Please provide measured pIC50 for the entries that follow.
MEASUREMENT TARGET: human CPT1A (Homo sapiens, UniProt P50416)
Construct: made in house; host or cells: Saccharomyces cerevisiae (pESC-trp) or cultured mammalian cells (pCDNA3.1); mitochondrial extract
Sequence (P50416 1-773): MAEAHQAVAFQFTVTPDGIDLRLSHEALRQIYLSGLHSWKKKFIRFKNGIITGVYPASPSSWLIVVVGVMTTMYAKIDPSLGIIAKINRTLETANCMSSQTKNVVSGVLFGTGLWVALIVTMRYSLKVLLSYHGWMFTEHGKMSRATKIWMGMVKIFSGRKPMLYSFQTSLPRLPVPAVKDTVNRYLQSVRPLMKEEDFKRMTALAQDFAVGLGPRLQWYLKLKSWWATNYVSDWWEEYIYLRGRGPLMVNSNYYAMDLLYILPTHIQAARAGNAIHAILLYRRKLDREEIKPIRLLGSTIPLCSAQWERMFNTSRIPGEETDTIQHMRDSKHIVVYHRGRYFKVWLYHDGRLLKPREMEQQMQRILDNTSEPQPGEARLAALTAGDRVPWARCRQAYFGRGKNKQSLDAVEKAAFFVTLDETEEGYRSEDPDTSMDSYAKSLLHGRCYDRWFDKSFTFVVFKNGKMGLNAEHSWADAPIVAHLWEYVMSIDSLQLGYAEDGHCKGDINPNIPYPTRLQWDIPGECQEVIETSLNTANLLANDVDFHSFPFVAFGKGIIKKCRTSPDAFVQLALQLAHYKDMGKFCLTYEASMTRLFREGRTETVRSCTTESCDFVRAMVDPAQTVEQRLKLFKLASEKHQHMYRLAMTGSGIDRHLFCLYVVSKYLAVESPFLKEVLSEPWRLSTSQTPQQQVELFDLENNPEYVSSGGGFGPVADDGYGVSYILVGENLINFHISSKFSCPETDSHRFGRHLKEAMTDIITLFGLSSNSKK
TEST DETAILS: Human CPT1A LC/MS assay
Assay type: biochemical
EXPERIMENTAL CONDITIONS: human CPT1A LC/MS assay, dose response format
pIC50: −log10 of the molar value.

Give pIC50 for the following molecule: "C[N+](C)(C)C[C@@H](CC(=O)O)NC(=O)c1ccc(C#Cc2ccccc2)s1"
≥ 6.00

Give pIC50 for the following molecule: "C[N+](C)(C)C[C@@H](CC(=O)[O-])NC(=O)c1ccc(Br)o1"
3.00 to 4.00

Give pIC50 for the following molecule: "CCCCCc1ccc(C#Cc2ccc(NS(=O)(=O)N[C@H](CC(=O)[O-])C[N+](C)(C)C)cc2)cc1"
5.00 to 6.00
